assay: Pharmacokinetics of Compound 1 in plasma and brain after IP and PO administration (discrete PK); format: in vivo; details: mouse; plasma, PO 3 mg/kg, male C57BL/6 mice
parameter: Tmax (h)
The reply should be a number in h, with the unit left off.

Notebook: Nc1ccc(-c2ccccc2)cc1NC(=O)c1cc2ccc(N3CCNCC3)cc2cn1 [Compound 1] , Tmax read as 2

###

target: HDAC3 (Homo sapiens, UniProt O15379); construct: purchased BPS Biosciences; assay: HDAC enzyme assay, HDAC3; assay type: biochemical; conditions: enzyme and compound incubated 24 hours at room temperature
Sequence (O15379 whole entry): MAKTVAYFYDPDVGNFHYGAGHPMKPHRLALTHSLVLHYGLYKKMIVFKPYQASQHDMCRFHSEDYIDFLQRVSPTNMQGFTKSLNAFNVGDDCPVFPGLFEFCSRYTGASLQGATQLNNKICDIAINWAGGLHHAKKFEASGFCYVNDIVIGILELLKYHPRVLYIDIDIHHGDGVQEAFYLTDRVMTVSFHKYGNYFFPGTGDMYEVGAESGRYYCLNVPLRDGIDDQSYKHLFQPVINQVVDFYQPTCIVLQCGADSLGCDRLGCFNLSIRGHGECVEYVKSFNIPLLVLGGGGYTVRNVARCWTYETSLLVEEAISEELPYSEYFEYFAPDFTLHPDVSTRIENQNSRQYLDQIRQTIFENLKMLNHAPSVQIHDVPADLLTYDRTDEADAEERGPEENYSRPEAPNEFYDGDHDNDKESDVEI
Sequence (Q9Y618 395-489 partner limits assumed): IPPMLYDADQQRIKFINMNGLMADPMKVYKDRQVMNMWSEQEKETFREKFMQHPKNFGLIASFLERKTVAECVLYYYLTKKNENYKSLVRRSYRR
Kindly apply the following: condition met if IC50 is less than 70 nM, condition not met in every other case.

Before answering, review these 4 worked examples.
compound="CN(C)CCNc1ccc2cc(C(=O)Nc3cc(-c4cccs4)ccc3N)ncc2c1 [Compound 5]" discrete_label="condition met"
compound="Nc1ccc(-c2cccs2)cc1NC(=O)c1cc2ccc(N3CCNCC3)cc2cn1 [Compound 2]" discrete_label="condition met"
compound="Nc1ccc(-c2ccncc2)cc1NC(=O)c1cc2ccc(N3CCNCC3)cc2cn1 [Compound 3]" discrete_label="condition not met"
compound="Nc1ccc(-c2ccccc2)cc1NC(=O)c1cc2ccc(N3CCNCC3)cc2cn1 [Compound 1]" discrete_label="condition not met"

Task item: Item Nc1ccc(-c2cccs2)cc1NC(=O)c1cc2ccc(NC(=O)C3CCCN3)cc2cn1 (stereo not shown) [Compound 6] : IC50 beneath 70 nM, strictly?
Reply: condition not met

Task item: Item CN1CCCC1C(=O)Nc1ccc2cc(C(=O)Nc3cc(-c4cccs4)ccc3N)ncc2c1 (stereo not shown) [Compound 7] : IC50 beneath 70 nM, strictly?
Reply: condition met

Task item: Item Nc1ccc(-c2ccccc2)cc1NC(=O)c1cc2ccc(N3CCNCC3=O)cc2cn1 [Compound 4] : IC50 beneath 70 nM, strictly?
Reply: condition not met

###

experiment: Pharmacokinetics of Compound 1 in plasma and brain after IP and PO administration (discrete PK); assay type: in vivo; settings: mouse; brain, PO 10 mg/kg, male C57BL/6 mice
parameter: Tmax
Answer by giving the amount and then stating its unit.

Notebook: Nc1ccc(-c2ccccc2)cc1NC(=O)c1cc2ccc(N3CCNCC3)cc2cn1 [Compound 1] , Tmax read as 8 h

###

assay: Pharmacokinetics of Compound 1 in plasma and brain after IP and PO administration (discrete PK); type: in vivo; settings: mouse; plasma, PO 3 mg/kg, male C57BL/6 mice
parameter: AUC(0-inf) (ng·h/mL)
The reply should be a number in ng·h/mL, with the unit left off.

Notebook: Nc1ccc(-c2ccccc2)cc1NC(=O)c1cc2ccc(N3CCNCC3)cc2cn1 , AUC(0-inf) read as 1480

###

test: Pharmacokinetics in plasma and brain after IV administration; assay type: in vivo; conditions: brain, IV 1 mg/kg, male C57BL/6 mice
Listing of recorded log10(AUCINF) by entry.
Please note: log10 values; quantity AUCINF; unit ng·h/g.

Example compounds with recorded log10(AUCINF):
compound="Nc1ccc(-c2cccs2)cc1NC(=O)c1cc2ccc(N3CCNCC3)cc2cn1 [Compound 2]" parameter=log10(AUCINF) quantitative_result=4.13
compound="Nc1ccc(-c2ccccc2)cc1NC(=O)c1cc2ccc(N3CCNCC3)cc2cn1 [Compound 1]" parameter=log10(AUCINF) quantitative_result=4.09
compound="Nc1ccc(-c2ccccc2)cc1NC(=O)c1cc2ccc(N3CCNCC3=O)cc2cn1 [Compound 4]" parameter=log10(AUCINF) quantitative_result=2.59
compound="Nc1ccc(-c2ccncc2)cc1NC(=O)c1cc2ccc(N3CCNCC3)cc2cn1 [Compound 3]" parameter=log10(AUCINF) quantitative_result=3.16

Lab note: next compound to report on.
Notebook: Nc1ccc(-c2ccc(F)cc2)cc1NC(=O)c1cc2ccc(N3CCNCC3)cc2cn1 [Compound 9] , log10(AUCINF) read as 3.98

###

assay: Pharmacokinetics in plasma and brain after IV administration; format: in vivo; settings: mouse; plasma, IV 1 mg/kg, male C57BL/6 mice, PK cassette
parameter: half-life
Answer by giving the amount and then stating its unit.

Example compounds with recorded half-life:
structure=Nc1ccc(-c2cccs2)cc1NC(=O)c1cc2ccc(N3CCNCC3)cc2cn1 result="5.29 h"
structure=Nc1ccc(-c2ccccc2)cc1NC(=O)c1cc2ccc(N3CCNCC3=O)cc2cn1 result="7.71 h"

Notebook: Nc1ccc(-c2ccccc2)cc1NC(=O)c1cc2ccc(N3CCNCC3)cc2cn1 , half-life read as 7.8 h

Notebook: Nc1ccc(-c2ccncc2)cc1NC(=O)c1cc2ccc(N3CCNCC3)cc2cn1 , half-life read as 5.68 h

###

Listing of recorded IC50 by entry.
target: HDAC1 (Homo sapiens, UniProt Q13547); construct: purchased BPS Biosciences; assay: HDAC enzyme assay, HDAC1; type: biochemical; settings: enzyme and compound incubated 24 hours at room temperature
Sequence (Q13547 whole entry): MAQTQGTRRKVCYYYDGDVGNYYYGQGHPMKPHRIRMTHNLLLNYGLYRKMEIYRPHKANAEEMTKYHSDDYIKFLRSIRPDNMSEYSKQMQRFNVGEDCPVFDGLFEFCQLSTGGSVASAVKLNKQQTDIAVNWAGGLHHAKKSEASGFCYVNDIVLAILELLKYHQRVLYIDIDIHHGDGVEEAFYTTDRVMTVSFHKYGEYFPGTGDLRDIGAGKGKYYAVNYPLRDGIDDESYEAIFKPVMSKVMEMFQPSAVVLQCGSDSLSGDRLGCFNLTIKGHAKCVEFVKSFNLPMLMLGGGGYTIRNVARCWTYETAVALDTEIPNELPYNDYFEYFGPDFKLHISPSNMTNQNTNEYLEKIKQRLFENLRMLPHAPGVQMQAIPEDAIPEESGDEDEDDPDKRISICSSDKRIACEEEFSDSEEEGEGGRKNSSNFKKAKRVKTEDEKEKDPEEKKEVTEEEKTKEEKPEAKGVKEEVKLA

molecule="CN1CCCC1C(=O)Nc1ccc2cc(C(=O)Nc3cc(-c4cccs4)ccc3N)ncc2c1 (stereo not drawn)" parameter=IC50 result="3 nM"
molecule="Nc1ccc(-c2cccs2)cc1NC(=O)c1cc2ccc(NC(=O)C3CCCN3)cc2cn1 (stereo not drawn)" parameter=IC50 result="5 nM"

Lab note: next molecule to report on.
Notebook: Nc1ccc(-c2ccncc2)cc1NC(=O)c1cc2ccc(N3CCNCC3)cc2cn1 , IC50 read as 7 nM

###

assay: Pharmacokinetics in plasma and brain after IV administration; type: in vivo; conditions: mouse; plasma, IV 1 mg/kg, male C57BL/6 mice, PK cassette
Listing of recorded AUC(0-t) by entry.
The reply should be a number in ng·h/mL, with the unit left off.

Example compounds with recorded AUC(0-t):
compound="Nc1ccc(-c2ccncc2)cc1NC(=O)c1cc2ccc(N3CCNCC3)cc2cn1 [Compound 3]" parameter=AUC(0-t) quantitative_result=770
compound="Nc1ccc(-c2ccccc2)cc1NC(=O)c1cc2ccc(N3CCNCC3=O)cc2cn1 [Compound 4]" parameter=AUC(0-t) quantitative_result=3470
compound="Nc1ccc(-c2ccccc2)cc1NC(=O)c1cc2ccc(N3CCNCC3)cc2cn1 [Compound 1]" parameter=AUC(0-t) quantitative_result=2680

Lab note: next compound to report on.
Notebook: Nc1ccc(-c2cccs2)cc1NC(=O)c1cc2ccc(N3CCNCC3)cc2cn1 [Compound 2] , AUC(0-t) read as 1560

###

test: Pharmacokinetics of Compound 1 in plasma and brain after IP and PO administration (discrete PK); assay type: in vivo; conditions: mouse; brain, PO 3 mg/kg, male C57BL/6 mice
parameter: Cmax (ng/g)
The reply should be a number in ng/g, with the unit left off.

Notebook: Nc1ccc(-c2ccccc2)cc1NC(=O)c1cc2ccc(N3CCNCC3)cc2cn1 [Compound 1] , Cmax read as 743

###

assay: Pharmacokinetics of Compound 1 in plasma and brain after IP and PO administration (discrete PK); assay type: in vivo; conditions: mouse, brain/plasma; PO 3 mg/kg, male C57BL/6 mice; read-out: AUCbrain/AUCplasma
parameter: Kp
Lab note: record just the number, no unit beside it.

Notebook: Nc1ccc(-c2ccccc2)cc1NC(=O)c1cc2ccc(N3CCNCC3)cc2cn1 , Kp read as 6.81

###

Assay: Pharmacokinetics of Compound 1 in plasma and brain after IP and PO administration (discrete PK)
Format: in vivo
Conditions: mouse; plasma, IP 3 mg/kg, male C57BL/6 mice
Method: Male C57Bl/6 mice were fasted overnight. Compound 1 was dissolved in 20% HydroxyPropyl-β-Cyclodextran in water. Fifteen animals per experimental arm were dosed by intraperitoneal injection or by oral gavage. […] The plasma was extracted with acetonitrile and the level of compound was analyzed by LC/MS/MS. The level of compound in plasma was calculated from a standard curve in mouse plasma. […] The level of compound in brain was calculated from a standard curve in mouse brain tissue. […]
parameter: Cmax
Answer by giving the amount and then stating its unit.

Notebook: Nc1ccc(-c2ccccc2)cc1NC(=O)c1cc2ccc(N3CCNCC3)cc2cn1 [Compound 1] , Cmax read as 318 ng/mL

###

experiment: Pharmacokinetics of Compound 1 in plasma and brain after IP and PO administration (discrete PK); assay type: in vivo; details: mouse; plasma, IP 10 mg/kg, male C57BL/6 mice
parameter: AUC(0-inf) (ng·h/mL)
The reply should be a number in ng·h/mL, with the unit left off.

Notebook: Nc1ccc(-c2ccccc2)cc1NC(=O)c1cc2ccc(N3CCNCC3)cc2cn1 [Compound 1] , AUC(0-inf) read as 5040

###

assay: Pharmacokinetics of Compound 1 in plasma and brain after IP and PO administration (discrete PK); assay type: in vivo; conditions: mouse; plasma, PO 10 mg/kg, male C57BL/6 mice
parameter: Tmax (h)
The reply should be a number in h, with the unit left off.

Notebook: Nc1ccc(-c2ccccc2)cc1NC(=O)c1cc2ccc(N3CCNCC3)cc2cn1 , Tmax read as 1

###

test: Pharmacokinetics of Compound 1 in plasma and brain after IP and PO administration (discrete PK); type: in vivo; conditions: mouse; brain, PO 10 mg/kg, male C57BL/6 mice
parameter: Cmax

Notebook: Nc1ccc(-c2ccccc2)cc1NC(=O)c1cc2ccc(N3CCNCC3)cc2cn1 [Compound 1] , Cmax read as 3650 ng/g

The values you see were collected from patent US20170240535A1.
